B1: Pituitary-specific positive transcription factor 1, residues 130 to 198; numbered along this chain, P28069 (parent)
chain: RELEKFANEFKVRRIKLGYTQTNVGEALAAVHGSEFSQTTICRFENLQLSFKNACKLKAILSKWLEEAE

# Variants of: B1
# measurement.protocol: abundance fitness (aPCA) (normalised: wild type 0, dead -1); higher = more abundant; growth selection in yeast, the domain comes from the species named
# test.parameters: Homo sapiens
abundance fitness overview
Just the number, please, no unit after it.

{"item.sequence": "RELEKFANEFKVRRIKLGYTQTNVGEALAAVHGSEFSQTTICRFENLQLSFKNACKLKAILSKWLEWAE", "value": -0.203}
{"item.sequence": "RELEKFANEFKVRRIKLFYTQTNVGEALAAVHGSEFSQTTICRFENLQLSFKNACKLKAILSKWLEEAE", "value": -0.681}
{"item.sequence": "RELEKFANEFKVRRIKLGYTQTNVGEALAAVHGSEFSQTTICRFENLQLSFKNACKLKAILSKWLKEAE", "value": -0.296}

Alright, here's another variant for you.
Q: Entry RELEKFANEFKVRRIKLGYTQTNVGEALAAVHGSEFSQTTICRFENLQLSFKNACKLKAILSKWLEAAE has what abundance fitness?
Ans: -0.214
